The values you see were collected from patent US8372967B2.

In this section we review reported % change in SGLT2 expression relative to saline values for a set of substances.
- System: rat SGLT2 mRNA
- assay.comment: Rat SGLT2 mRNA in kidney, 1-10-1 and 1-10-2 MOE gapmers, Sprague-Dawley rats (Table 63)
- Assay type: in vivo
- condition.info: 50 nmol/kg i.p. twice per week for three weeks
Strand notation (5' to 3'): a small letter for the sugar, then the base; units joined by * are phosphorothioate-linked, units joined directly phosphodiester-linked; [ ] holds rarer units or linkages, { } end groups; capitals alone tell only the bases. e = 2'-O-(2-methoxyethyl) (MOE); [5mC] = 5-methylcytosine; d = 2'-deoxy (DNA)
Reply numerically in %, unit not repeated.

- ISIS 370717: TAGCCACCAACT 1-10-1 MOE gapmer, phosphorothioate, SGLT-2 (sugars from the 5' end e1 d10 e1, all phosphorothioate, methylation of C not given here): −55
- ISIS 382675 (eT*dA*dG*d[5mC]*d[5mC]*dA*d[5mC]*d[5mC]*dA*dA*d[5mC]*eT*eG): −50
- ISIS 379699: GGCATGAGCTTC 1-10-1 MOE, SGLT2 (eG*dG*d[5mC]*dA*dT*dG*dA*dG*d[5mC]*dT*dT*e[5mC]): −60

--- query ---
Specify measured % change in SGLT2 expression relative to saline for ISIS 379692: 1-10-1 MOE gapmer, SGLT2 (eT*dG*dT*dT*d[5mC]*d[5mC]*dA*dG*d[5mC]*d[5mC]*d[5mC]*eA) .
−80
